test_system: Protein tyrosine phosphatase type IVA 3 (Homo sapiens, UniProt O75365)
Sequence (O75365 whole entry): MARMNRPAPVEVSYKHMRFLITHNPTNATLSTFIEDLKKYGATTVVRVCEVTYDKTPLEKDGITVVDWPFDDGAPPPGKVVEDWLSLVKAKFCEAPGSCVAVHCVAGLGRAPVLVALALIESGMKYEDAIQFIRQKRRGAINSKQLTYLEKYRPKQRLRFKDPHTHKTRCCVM
protocol: Inhibition of human His6-tagged full length PRL3 assessed as inhibition of DiFMUP dephosphorylation at 5 ug/ml relative to control
attribute_measured: inhibition (%)

The examples below pair each entry with its known result.
                           compound_smiles  attribute_measured  observed_result
0  O=C1NC(=S)S/C1=C\C=C\c1ccccc1OCc1ccncc1          inhibition             39.4
1            O=C1NC(=S)S/C1=C\C=C\c1cccnc1          inhibition             47.1
2            O=C1NC(=S)S/C1=C\C=C\c1ccccc1          inhibition             37.4

a. O=C1NC(=O)/C(=C/C=C/c2ccccc2OCc2ccccc2Br)S1
b. COc1ccccc1COc1ccccc1/C=C/C=C1\SC(=S)NC1=O
c. COc1cccc(COc2ccccc2/C=C/C=C2\SC(=S)NC2=O)c1
QUERY: Arrange items by their inhibition values in increasing order. Order the labels as requested and list them.
RESULT: a, c, b
